assay: Ocular biodistribution study following ocular administration; type: in vivo, Dutch-Belted rabbits; settings: male, Dutch-Belted, rabbit, posterior sclera and choroid, other: ocular administration, 0.08 mg/eye, formulation G, 0.08 mg/eye once, 15 min, An#102 right eye; read-out: Squalamine in posterior sclera and choroid

# compound, uom, concentration at 15 min
data = [
    ("CC(C)[C@@H](CC[C@@H](C)[C@H]1CC[C@H]2[C@@H]3[C@H](O)C[C@H]4C[C@@H](NCCCNCCCCN)CC[C@]4(C)[C@H]3CC[C@]12C)OS(=O)(=O)O [Squalamine]", "ng/g", 145),
]

###

experiment: Ocular biodistribution study following ocular administration; assay type: in vivo, Dutch-Belted rabbits; details: male, Dutch-Belted, rabbit, posterior sclera and choroid, other: ocular administration, 0.08 mg/eye, formulation G, 0.08 mg/eye once, 30 min, An#104 left eye; read-out: Squalamine in posterior sclera and choroid

# inputSmiles, uom, concentration at 30 min
records = [
    ("CC(C)[C@@H](CC[C@@H](C)[C@H]1CC[C@H]2[C@@H]3[C@H](O)C[C@H]4C[C@@H](NCCCNCCCCN)CC[C@]4(C)[C@H]3CC[C@]12C)OS(=O)(=O)O", "ng/g", 54.4),
]
